# experimental_system: TAL activity of the PAL/TAL enzyme (Rhodotorula toruloides, UniProt P11544)
# Sequence (P11544 whole entry): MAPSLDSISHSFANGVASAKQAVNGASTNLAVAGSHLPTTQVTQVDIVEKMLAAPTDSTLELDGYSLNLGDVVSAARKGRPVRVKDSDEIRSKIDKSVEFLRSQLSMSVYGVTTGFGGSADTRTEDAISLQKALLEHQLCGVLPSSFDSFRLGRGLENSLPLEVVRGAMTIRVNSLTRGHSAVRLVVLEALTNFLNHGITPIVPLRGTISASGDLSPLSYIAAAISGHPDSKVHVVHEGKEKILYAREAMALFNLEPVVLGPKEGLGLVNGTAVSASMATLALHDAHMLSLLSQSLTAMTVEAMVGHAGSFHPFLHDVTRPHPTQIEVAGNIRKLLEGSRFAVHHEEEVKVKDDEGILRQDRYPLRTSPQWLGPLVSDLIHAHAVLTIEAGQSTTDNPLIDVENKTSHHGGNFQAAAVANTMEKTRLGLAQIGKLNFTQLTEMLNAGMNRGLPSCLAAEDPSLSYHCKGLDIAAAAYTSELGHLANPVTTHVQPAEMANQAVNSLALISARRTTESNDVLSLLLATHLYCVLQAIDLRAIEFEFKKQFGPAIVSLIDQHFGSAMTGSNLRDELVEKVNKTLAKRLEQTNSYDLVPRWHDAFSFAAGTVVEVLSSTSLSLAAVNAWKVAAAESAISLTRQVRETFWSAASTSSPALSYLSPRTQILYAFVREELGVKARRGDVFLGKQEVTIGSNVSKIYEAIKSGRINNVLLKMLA
# test_protocol: Inhibition of TAL activity by pHCA
measure: Ki (µM)
Please reply with the bare figure in µM and do not write the unit itself.

Ask: Can you share its Ki? I mean this molecule: O=C(O)C=Cc1ccc(O)cc1 [pHCA, para-Hydroxycinnamic acid]
Reply: 16
